Give measured PBM binding z-score for each item. Keep answers brief.
Test system: PPARg:RXRa IVT, anti-PPARg (NR concentration 270 nM, RXRa partner concentration 90 nM)
method summary: PBM binding z-score (relative to random genomic background probes); higher = stronger binding; sequences stand for … in GC…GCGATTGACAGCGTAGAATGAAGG
Answers are plain numbers.

Solved entries:
INSERT INTO measurements (primary_sequence, quantitative_result) VALUES
  ('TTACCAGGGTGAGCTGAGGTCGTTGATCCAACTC', 1.4),
  ('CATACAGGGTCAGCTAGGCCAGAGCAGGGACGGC', 2.45),
  ('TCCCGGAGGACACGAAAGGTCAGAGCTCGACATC', 1.17),
  ('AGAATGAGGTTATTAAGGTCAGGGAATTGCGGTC', 4.42);

Give PBM binding z-score for each listed item.
1. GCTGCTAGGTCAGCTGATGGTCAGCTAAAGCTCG
2. TTACCAAGGTGAAGGTCTTTGATCCCTCTGTAGA
3. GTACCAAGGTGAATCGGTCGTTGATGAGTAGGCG
4. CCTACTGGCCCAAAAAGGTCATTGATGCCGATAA
5. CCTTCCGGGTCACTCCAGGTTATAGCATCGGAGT
6. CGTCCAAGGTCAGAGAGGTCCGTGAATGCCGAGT

2.35
3.26
2.44
1.52
4.8
2.18

Give PBM binding z-score for each listed item.
1. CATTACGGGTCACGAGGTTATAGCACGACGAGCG
2. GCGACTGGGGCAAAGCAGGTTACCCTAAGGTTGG

1: 5.99; 2: 3.9

* * *

Test system: PXR:RXRa (NR concentration 270 nM, RXRa partner concentration 90 nM)
method summary: PBM binding z-score (relative to random genomic background probes); higher = stronger binding; sequences stand for … in GC…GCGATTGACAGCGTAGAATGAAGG
Give measured PBM binding z-score for each item. Keep answers brief.
Numbers only.

Solved entries:
INSERT INTO measurements (primary_sequence, quantitative_result) VALUES
  ('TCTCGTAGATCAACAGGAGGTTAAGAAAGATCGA', 0.901),
  ('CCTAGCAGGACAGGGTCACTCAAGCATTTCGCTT', 2.84),
  ('CGAATTAGGTCAAGGACAGTGAATCTCCGCACGC', 1.28),
  ('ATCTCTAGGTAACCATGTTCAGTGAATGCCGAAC', 0.218),
  ('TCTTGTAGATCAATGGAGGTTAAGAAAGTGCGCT', 2.58);

So what's the measured PBM binding z-score for this one? TCTAGTTGGTCCCGGAGGTCACACACGACGGGTA
4.18

* * *

Give measured PBM binding z-score for each item. Keep answers brief.
Tested on: THRa homodimer (NR concentration 90 nM)
method summary: PBM binding z-score (relative to random genomic background probes); higher = stronger binding; sequences stand for … in GC…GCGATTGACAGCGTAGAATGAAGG
Give bare numbers.

Solved entries:
INSERT INTO assay_data (primary_sequence, system_name, quantitative_result) VALUES
  ('TCCGCTAGGTCAACGATGGTCAGCTAATCTGCTA', 'THRa homodimer (NR concentration 90 nM)', 1.03),
  ('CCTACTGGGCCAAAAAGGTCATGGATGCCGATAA', 'THRa homodimer (NR concentration 90 nM)', 1.05),
  ('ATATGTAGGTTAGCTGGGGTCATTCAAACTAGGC', 'THRa homodimer (NR concentration 90 nM)', 3.52);

Give PBM binding z-score for each listed item.
1. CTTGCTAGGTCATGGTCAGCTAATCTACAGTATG
2. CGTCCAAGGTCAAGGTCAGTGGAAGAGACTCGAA
3. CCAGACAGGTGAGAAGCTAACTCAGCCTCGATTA

[1.27, 3.67, -0.194]
